Test System: 14-3-3σ/ERα (Homo sapiens, UniProt P03372+P31947)
Construct: The 14-3-3 σ isoform (full-length for mass spectrometry and fluorescence anisotropy assays, ΔC for crystallography); made in house; host or cells: E. coli Rosetta 2(DE3)pLysS, pPROEX HTb vector
Sequence (P31947 whole entry, other chains not shown, canonical isoform): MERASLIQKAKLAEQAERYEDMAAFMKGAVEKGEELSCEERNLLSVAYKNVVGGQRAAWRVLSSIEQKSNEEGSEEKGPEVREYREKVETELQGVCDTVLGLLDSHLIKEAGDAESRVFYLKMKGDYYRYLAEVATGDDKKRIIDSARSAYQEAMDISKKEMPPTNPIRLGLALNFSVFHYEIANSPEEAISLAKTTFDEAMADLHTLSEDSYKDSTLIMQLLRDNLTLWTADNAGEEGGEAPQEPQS
Assay Method Text: Mass spectrometry dose response, compound binding to 14-3-3σ in the presence of ERα phosphopeptide
Test Settings: 100 nM compound, 100 nM 14-3-3σ, ERα-peptide 2 µM, 8h
Classify as follows. Reported Percentage (%) bound of compound to 14-3-3σ, ERα 8h greater than or equal to 2%: YES. Reported Percentage (%) bound of compound to 14-3-3σ, ERα 8h below: NO.

Use these answered entries as a reference point.
Molecule	Category Label
O=C(CCl)NCC1CCN(C(=O)C2(Oc3ccc(Cl)cc3)CCCC2)CC1	YES
NC1CCC(Nc2ccc(Cl)cc2)(C(=O)N2CCC(CNC(=O)CCl)CC2)CC1 (stereo not shown)	YES
CC(C)(Oc1ccc(Cl)cc1)C(=O)N1CCC(CCCNC(=O)CCl)CC1	NO
O=C(CCl)NCC1CCN(C(=O)C2(Oc3ccc(Cl)cc3)CCC(F)(F)CC2)CC1	YES
O=C(CCl)NCC1CCN(C(=O)C2(Nc3ccc(Cl)cc3)CC2)CC1	YES

[in] Textbook exercise: given the entry Cl.NC1CCC(Oc2ccccc2)(C(=O)N2CCC(CNC(=O)CCl)CC2)CC1 (stereo not shown) , state whether its Percentage (%) bound of compound to 14-3-3σ, ERα 8h is greater than or equal to 2%.
[out] NO

[in] Check the entry `O=C(CCl)NCC1CCN(C(=O)C2(Oc3ccc(Cl)cc3)CCOCC2)CC1` : does Percentage (%) bound of compound to 14-3-3σ, ERα 8h equal or exceed 2%?
[out] YES

[in] Tell me whether Percentage (%) bound of compound to 14-3-3σ, ERα 8h is at least 2% here: `O=C(CCl)NCC1CCN(C(=O)C2(Nc3ccc(Cl)cc3)CCCC2)CC1`
[out] YES

[in] Item `CC(C)(Nc1ccccc1)C(=O)N1CCC(CNC(=O)CCl)CC1` with Percentage (%) bound of compound to 14-3-3σ, ERα 8h of 2% or above?
[out] NO

[in] Answer whether Percentage (%) bound of compound to 14-3-3σ, ERα 8h of `C=CS(=O)(=O)NCC1CCN(C(=O)C2(Nc3ccc(Cl)cc3)CCOCC2)CC1` is greater than or equal to 2%.
[out] NO
